Answer each item with its documented GI50.
# Tested on: SK-OV-3
# test.details: NCI tumour cell line growth inhibition, 48 h
The source made the active and inactive calls. Rule as the data show it: active = GI50 up to about 1.1 µM and inactive = higher.

Reference set (2 entries):
compound	assay.target	GI50
CC[C@H]1C=CCC[C@@]2(C[C@@H]3CC[C@H]4[C@H](C(=O)OCCCCCCCCCCCCCCCC(=O)N(CCCN)C[C@@H](O)CCN)[C@]5(CCC[C@@H](C)O5)NC(=[N+]34)N2)O1	SK-OV-3	1.65 µM (inactive)
CCOc1cccc2ccc[n+](CC)c12	SK-OV-3	> 100 µM (inactive)

Count: 3. Required value per item: GI50.
1. c1ccc(C2SCc3nc4cc5ccccc5cc4n32)cc1 (stereo unspecified)
2. c1ccc(-c2sc(-c3cccs3)cc2Cc2cccs2)cc1
3. CCN(CC)CCN1C(=O)c2c(c(-c3ccccc3)c3ccccc3c2-c2ccccc2)C1=O

> 100 µM (inactive)
> 10 µM (inactive)
> 100 µM (inactive)

Hello, please tell me recorded GI50 for this one: CC(O)/C=C/C1OC(=O)CC1Nc1ccc(C=O)cc1 (stereo unspecified)
> 100 µM (inactive)

====

Give GI50 for every item shown.
# Tested on: K562
# test.details: NCI tumour cell line growth inhibition, 48 h
Active and inactive are the calls of the source. Rule as the data show it: active = GI50 up to about 1.1 µM and inactive = higher.

In [3]: df
Out[3]:
                                   compound       value_reported
0  CC(C)(C)C1CCC2c3c([nH]c4ccccc34)C3C(=O)N(c4ccc(Br)cc4)C(=O)C3C2C1 (configuration not stated)   15.7 µM (inactive)
1  COc1ccc2c(c1)C1=NCCN(C)c3ccc([N+](=O)[O-])c(c31)N2   12.2 µM (inactive)
2  COc1ccc(C2SCC(=O)N2c2ccc(-n3c(-c4ccccc4)nc4ccccc4c3=O)cc2)cc1 (configuration not stated)  > 100 µM (inactive)
3  C=C1C(=O)OC2C/C(C)=C/CC/C(C)=C/CCC3(COC(C)=O)OC3CC12 (configuration not stated)   5.68 µM (inactive)
4  O=C(O)CC1OCC=C2CN3CCC45C6=CC(=O)C(O)=C([N+](=O)[O-])C6=NC4C1C2CC35 (configuration not stated)   92.3 µM (inactive)
5  CC(C)(C)C(=O)CC(=O)C(C)(C)C.CC(C)(C)C(=O)CC(=O)C(C)(C)C.[SiH4]   1.57 µM (inactive)

# return recorded GI50 for entry COC(CNC(=O)C(C)NC(=O)/C=C/c1ccccc1)OC (configuration not stated)
> 100 µM (inactive)

====

# Tested on: NCI-H23
# test.details: NCI tumour cell line growth inhibition, 48 h
Activity calls are given as the source filed them. Cut-off read from the data, not from the text of the source: active = GI50 up to about 1.1 µM and inactive = higher.
Bench note: report the call from active, inactive

Worked set:
                                  structure  assigned_label
0  O=C1/C(=C\c2ccc([N+](=O)[O-])cc2)CS(=O)(=O)C/C1=C/c1ccc([N+](=O)[O-])cc1          active
1                       O=P1(N2CCOCC2)OCCO1        inactive
2  C=C(C)[C@H]1CC(=O)/C(C)=C\CC/C(C)=C/CC[C@@]2(C)O[C@@H]2C1        inactive
3  COc1ccc2cc1Oc1ccc(cc1)C[C@H]1c3cc(c(OC)cc3CCN1C)Oc1c(O)c(OC)cc3c1[C@H](C2)N(C)CC3        inactive
4        N/C(=N\N=C=C1C(=O)Nc2ccc(F)cc21)NO        inactive
5  CCOn1c(C2(CC3CCN(C(=O)c4ccccc4)CC3)OCCO2)cc2ccccc21        inactive
6  CC(C)(C)C(=O)CC(=O)C(C)(C)C.CC(C)(C)C(=O)CC(=O)C(C)(C)C.[SiH4]          active
7  O=C(N[C@H]1CCC[C@H]1C(=O)Nc1ccc(C(F)(F)F)cc1)OCc1ccccc1        inactive
8       Cc1ccccc1-n1c(CCl)nc2ccc(Br)cc2c1=O        inactive

Please indicate how the test categorized Clc1ccc(Cc2nc3cc4ccccc4cc3[nH]2)cc1Cl .
inactive
